# ASSAY_SYSTEM: Sodium- and chloride-dependent GABA transporter 1 (Homo sapiens)
# Sequence (P30531 whole entry): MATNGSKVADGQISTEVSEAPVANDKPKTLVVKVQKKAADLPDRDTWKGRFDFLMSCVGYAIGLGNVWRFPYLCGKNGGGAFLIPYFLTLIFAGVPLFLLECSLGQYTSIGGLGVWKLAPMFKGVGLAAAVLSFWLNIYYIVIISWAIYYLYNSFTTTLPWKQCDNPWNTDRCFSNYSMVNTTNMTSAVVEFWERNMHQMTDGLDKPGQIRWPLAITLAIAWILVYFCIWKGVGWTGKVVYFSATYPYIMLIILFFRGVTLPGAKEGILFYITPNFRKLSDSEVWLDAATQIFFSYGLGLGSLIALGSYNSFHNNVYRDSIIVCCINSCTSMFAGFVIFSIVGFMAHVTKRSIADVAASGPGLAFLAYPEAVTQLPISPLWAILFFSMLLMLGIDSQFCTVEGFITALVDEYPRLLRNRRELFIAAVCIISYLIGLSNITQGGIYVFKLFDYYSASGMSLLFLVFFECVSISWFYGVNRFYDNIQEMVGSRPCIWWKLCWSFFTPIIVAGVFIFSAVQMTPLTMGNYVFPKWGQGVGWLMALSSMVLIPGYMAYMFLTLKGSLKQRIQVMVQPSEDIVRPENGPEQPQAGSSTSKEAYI
# Format: cell-based
# ASSAY_CONTEXT: read-out: IC50
pIC50: −log10 of the molar value.
Mark FALSE for pIC50 values under 5, and TRUE for everything at or above.

Reference set (5 entries):
# MOLECULE, DISCRETE_LABEL
data = [
    ("O=C(O)CC1CNC=N1 (stereo unspecified)", "FALSE"),
    ("C[C@@H]1SC(N)=N[C@@H]1CC(=O)O (relative stereo)", "FALSE"),
    ("O=C(O)C[C@@H]1CCNC1", "TRUE"),
    ("CC(C(=O)O)C1CSC(N)=N1 (stereo in doubt; l-10b)", "FALSE"),
    ("C[C@@H](C(=O)O)[C@@H]1CSC(N)=N1 (relative stereo)", "FALSE"),
]

Please check the record CC(C(=O)O)C1CSC(N)=N1 (stereo in doubt; l-10a) and state if its pIC50 is at or above 5.
FALSE

Reported pIC50 reaches at least 5 for O=C(O)C[C@H]1CCNC1 ?
TRUE
